target: Human JNK1α1 (Homo sapiens)
Sequence (P45983 1-384 isoform P45983-2): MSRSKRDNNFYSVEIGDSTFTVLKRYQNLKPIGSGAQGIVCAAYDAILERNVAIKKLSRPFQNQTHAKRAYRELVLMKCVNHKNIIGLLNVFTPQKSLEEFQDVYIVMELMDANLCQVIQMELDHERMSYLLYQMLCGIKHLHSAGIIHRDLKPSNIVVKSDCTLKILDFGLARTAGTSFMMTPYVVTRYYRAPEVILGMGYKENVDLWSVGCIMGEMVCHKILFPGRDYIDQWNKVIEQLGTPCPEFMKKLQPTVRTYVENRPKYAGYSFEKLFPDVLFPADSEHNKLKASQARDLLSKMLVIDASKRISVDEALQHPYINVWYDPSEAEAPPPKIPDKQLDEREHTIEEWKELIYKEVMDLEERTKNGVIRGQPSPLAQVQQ
Endpoint Name: IC50 (nM)
Numbers only here, please. The scale is nM.

Cc1n[nH]cc1-c1cccc2c1nnn2-c1ccnc(N[C@H]2CC[C@H](C(=O)N3CCC(O)CC3)CC2)n1 ... 5.2
Cc1cscc1-c1cccc2c1nnn2-c1ccnc(N[C@H]2CC[C@H](C(=O)N3CCC(O)CC3)CC2)n1 ... 2.8
O=C([C@H]1CC[C@H](Nc2nccc(-n3nnc4c(-c5ccsc5)cccc43)n2)CC1)N1CCC(O)CC1 ... 20.3
Cc1ccccc1-c1cccc2c1nnn2-c1ccnc(N[C@H]2CC[C@H](C(=O)N3CCC(O)CC3)CC2)n1 ... 5.8
O=C([C@H]1CC[C@H](Nc2nccc(-n3nnc4c(-c5ccncc5)cccc43)n2)CC1)N1CCC(O)CC1 ... 28.7
Cc1n[nH]cc1-c1cccc2c1nnn2-c1ccnc(NC2CCN(S(C)(=O)=O)CC2)n1 ... 3
O=C([C@H]1CC[C@H](Nc2nccc(-n3ccc4c(-c5ccsc5)cccc43)n2)CC1)N1CCC(O)CC1 ... 47.9
Cc1noc(C)c1-c1cccc2c1ccn2-c1ccnc(N[C@H]2CC[C@H](C(=O)N3CCC(O)CC3)CC2)n1 ... 48.4

API: the following record is the query input.
Input line: Read the entry O=C([C@H]1CC[C@H](Nc2nccc(-n3ccc4c(-c5ccncc5)cccc43)n2)CC1)N1CCC(O)CC1 and write its reported IC50.
Output line: 44

----------
Below are IC50 values recorded for Human JNK2α2 (Homo sapiens, UniProt P45984).
Numbers only here, please. The scale is nM.

# example entries with known answers
O=C([C@H]1CC[C@H](Nc2nccc(-n3nnc4c(-c5ccsc5)cccc43)n2)CC1)N1CCC(O)CC1 [Compound 6] ... 67.8
Cc1noc(C)c1-c1cccc2c1ccn2-c1ccnc(N[C@H]2CC[C@H](C(=O)N3CCC(O)CC3)CC2)n1 [Compound 13] ... 225

Input line: Fill in IC50 for Cc1n[nH]cc1-c1cccc2c1ccn2-c1ccnc(N[C@H]2CC[C@H](C(=O)N3CCC(O)CC3)CC2)n1 [Compound 12] tested with Human JNK2α2 (Homo sapiens, UniProt P45984).
Sequence (P45984 whole entry): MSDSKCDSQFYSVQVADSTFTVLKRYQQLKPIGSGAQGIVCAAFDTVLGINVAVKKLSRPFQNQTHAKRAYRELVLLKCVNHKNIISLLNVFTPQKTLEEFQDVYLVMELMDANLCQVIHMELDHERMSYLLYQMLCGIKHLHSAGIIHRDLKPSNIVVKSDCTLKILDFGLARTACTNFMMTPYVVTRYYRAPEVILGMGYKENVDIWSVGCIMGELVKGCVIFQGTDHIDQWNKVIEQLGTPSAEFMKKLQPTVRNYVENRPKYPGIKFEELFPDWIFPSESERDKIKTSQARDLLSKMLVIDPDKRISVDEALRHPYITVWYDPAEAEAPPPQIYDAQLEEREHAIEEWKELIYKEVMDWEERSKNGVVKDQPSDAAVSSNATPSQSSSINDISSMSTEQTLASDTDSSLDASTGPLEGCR
Output line: 121

Input line: Fill in IC50 for Cc1cscc1-c1cccc2c1ccn2-c1ccnc(N[C@H]2CC[C@H](C(=O)N3CCC(O)CC3)CC2)n1 [Compound 7] tested with Human JNK2α2 (Homo sapiens, UniProt P45984).
Output line: 98.7

Input line: Fill in IC50 for Cc1ccncc1-c1cccc2c1ccn2-c1ccnc(N[C@H]2CC[C@H](C(=O)N3CCC(O)CC3)CC2)n1 [Compound 14] tested with Human JNK2α2 (Homo sapiens, UniProt P45984).
Output line: 341

Input line: Fill in IC50 for O=C([C@H]1CC[C@H](Nc2nccc(-n3ccc4c(-c5ccncc5)cccc43)n2)CC1)N1CCC(O)CC1 [Compound 16] tested with Human JNK2α2 (Homo sapiens, UniProt P45984).
Output line: 175

Input line: Fill in IC50 for Cc1ccccc1-c1cccc2c1nnn2-c1ccnc(N[C@H]2CC[C@H](C(=O)N3CCC(O)CC3)CC2)n1 [Compound 2] tested with Human JNK2α2 (Homo sapiens, UniProt P45984).
Output line: 19.9

Input line: Fill in IC50 for Cc1cscc1-c1cccc2c1nnn2-c1ccnc(N[C@H]2CC[C@H](C(=O)N3CCC(O)CC3)CC2)n1 [Compound 1] tested with Human JNK2α2 (Homo sapiens, UniProt P45984).
Output line: 12.7

----------
system: phospho-c-Jun; test: Phospho-c-Jun translocation assay in TNFα-activated SW1353 cells; format: cell-based; settings: Homo sapiens, TNFα 1 ng/ml for 20 min, 30 min compound pre-incubation
Endpoint Name: pIC50
# reply with the number alone; pIC50 is -log10 of concentration in mol/L

O=C([C@H]1CC[C@H](Nc2nccc(-n3nnc4c(-c5ccsc5)cccc43)n2)CC1)N1CCC(O)CC1 ... 5.48
Cc1ccncc1-c1cccc2c1nnn2-c1ccnc(N[C@H]2CC[C@H](C(=O)N3CCC(O)CC3)CC2)n1 ... 5.55
Cc1cscc1-c1cccc2c1ccn2-c1ccnc(N[C@H]2CC[C@H](C(=O)N3CCC(O)CC3)CC2)n1 ... 5.08

API: the following record is the query input.
Input line: Read the entry Cc1cscc1-c1cccc2c1nnn2-c1ccnc(N[C@H]2CC[C@H](C(=O)N3CCC(O)CC3)CC2)n1 and write its reported pIC50.
Output line: 6.15
